- target-under-test: RSL-MOA
- condition-summary: 20 mM Tris/HCl pH 7.5, 100 mM NaCl, 25 °C, one-site model, titrated into the RSL-MOA/Galα1-3Gal complex
reported-property: pKd
Remember the convention: pKd equals -log10 of concentration in molar.

Q. Report pKd on RSL-MOA for this entry: CO[C@@H]1O[C@@H](C)[C@@H](O)[C@@H](O)[C@@H]1O [α-methyl fucoside]
A. 6.40
